System: HBV rcDNA
experiment-summary: HepDE19 assay with bDNA quantitation of HBV rcDNA
Format: cell-based, hepatitis B virus
assay-context: HepDE19 cells, Tet-free medium, 7 day-incubation, rcDNA measured by Quantigene 2.0 bDNA assay, top concentration 25 μM; read-out: DE-19 bDNA EC50
Readings of EC50 for the listed compounds

Some compounds with known EC50 results, for comparison:
compound	EC50
Cn1c(Cl)c2c(c1C(=O)Nc1ccc(F)c(Cl)c1)CCC2NC(=O)OCc1cn[nH]n1 (single isomer, unassigned) [Compound 107]	10 nM
Cn1cc(COC(=O)NC2CCc3c2cn(C)c3C(=O)Nc2ccc(F)c(Cl)c2)nn1 (single isomer, unassigned) [Compound 117]	6100 nM

# next compound below
EC50 recorded for this compound, Cn1c(C(=O)Nc2ccc(F)c(Cl)c2)c2c(c1C(F)(F)F)C(NC(=O)OCc1cn[nH]n1)CC2 (single isomer, unassigned) [Compound 133] , is 430 nM

---

Test system: HBV rcDNA
experiment-summary: HepDE19 assay with bDNA quantitation of HBV rcDNA
Assay type: cell-based, hepatitis B virus
assay-context: HepDE19 cells, Tet-free medium, 7 day-incubation, rcDNA measured by Quantigene 2.0 bDNA assay, top concentration 25 μM; read-out: DE-19 bDNA EC50
Categories are defined by ranges of EC50, namely low group: < 0.3 µM; middle group: ≥ 0.3 µM and < 2 µM; high group: ≥ 2 µM

## Task Hi, small favor: classify Cn1cc2c(c1C(=O)Nc1ccc(F)c(Cl)c1)CCC2NC(=O)OCc1nc[nH]n1 (single isomer, unassigned) [Compound 58] by its EC50 when you get a moment.
## Result middle group

## Task Hi, small favor: classify Cn1cnc(COC(=O)NC2CCc3c2c(Cl)n(C)c3C(=O)Nc2ccc(F)c(Cl)c2)n1 (single isomer, unassigned) [Compound 51] by its EC50 when you get a moment.
## Result low group

## Task Hi, small favor: classify Cn1c(C(=O)Nc2ccc(F)c(Cl)c2)c2c(c1C1CC1)C(NC(=O)OCc1nc[nH]n1)CC2 (single isomer, unassigned) [Compound 99] by its EC50 when you get a moment.
## Result middle group

## Task Hi, small favor: classify Cn1cc2c(c1C(=O)Nc1ccc(F)c(Cl)c1)CCC2NC(=O)OCc1ccccn1 (stereo not shown) [Compound 2] by its EC50 when you get a moment.
## Result low group

## Task Hi, small favor: classify C#CCOC(=O)NC1CCc2c1cn(C)c2C(=O)Nc1ccc(F)c(Cl)c1 (single isomer, unassigned) [Compound 102] by its EC50 when you get a moment.
## Result low group

## Task Hi, small favor: classify Cn1cc2c(c1C(=O)Nc1ccc(F)c(Cl)c1)CCC2NC(=O)OC[C@H]1CCC(=O)N1 (single isomer, unassigned) [Compound 121] by its EC50 when you get a moment.
## Result high group

## Task Hi, small favor: classify Cn1c(Cl)c2c(c1C(=O)Nc1ccc(F)c(Cl)c1)CCC2NC(=O)OCc1cn[nH]n1 (single isomer, unassigned) [Compound 106] by its EC50 when you get a moment.
## Result middle group

## Task Hi, small favor: classify Cn1c(C(=O)Nc2ccc(F)c(Cl)c2)c2c(c1C(F)(F)F)C(NC(=O)OCc1nc[nH]n1)CC2 (single isomer, unassigned) [Compound 127] by its EC50 when you get a moment.
## Result middle group

## Task Hi, small favor: classify Cn1cc2c(c1C(=O)Nc1ccc(F)c(Cl)c1)CCCC2NS(=O)(=O)C1CC1 (single isomer, unassigned) [Compound 30] by its EC50 when you get a moment.
## Result high group

## Task Hi, small favor: classify Cn1cc2c(c1C(=O)Nc1ccc(F)c(Cl)c1)CCC2NS(=O)(=O)C1CC1 (single isomer, unassigned) [Compound 14] by its EC50 when you get a moment.
## Result low group

## Task Hi, small favor: classify Cn1cc2c(c1C(=O)Nc1ccc(F)c(Cl)c1)CCC2NC(=O)OCc1c[nH]nn1 (single isomer, unassigned) [Compound 60] by its EC50 when you get a moment.
## Result low group

## Task Hi, small favor: classify Cn1c(Cl)c2c(c1C(=O)Nc1ccc(F)c(Cl)c1)CCCC2NC(=O)OCc1nc[nH]n1 (single isomer, unassigned) [Compound 134] by its EC50 when you get a moment.
## Result middle group

## Task Hi, small favor: classify Cn1cc2c(c1C(=O)Nc1ccc(F)c(Cl)c1)CCC2NC(=O)OCC#CC1CC1 (single isomer, unassigned) [Compound 114] by its EC50 when you get a moment.
## Result middle group

## Task Hi, small favor: classify Cn1c(Cl)c2c(c1C(=O)Nc1ccc(F)c(Cl)c1)CCC2NC(=O)OCc1nc[nH]n1 (single isomer, unassigned) [Compound 104] by its EC50 when you get a moment.
## Result middle group

## Task Hi, small favor: classify Cn1cnc(COC(=O)NC2CCc3c2c(Cl)n(C)c3C(=O)Nc2ccc(F)c(Cl)c2)n1 (single isomer, unassigned) [Compound 52] by its EC50 when you get a moment.
## Result middle group

## Task Hi, small favor: classify Cn1cnc(COC(=O)NC2CCc3c2cn(C)c3C(=O)Nc2ccc(F)c(Cl)c2)n1 (single isomer, unassigned) [Compound 26] by its EC50 when you get a moment.
## Result low group

## Task Hi, small favor: classify Cc1n[nH]nc1COC(=O)NC1CCc2c1cn(C)c2C(=O)Nc1ccc(F)c(Cl)c1 (single isomer, unassigned) [Compound 139] by its EC50 when you get a moment.
## Result high group

## Task Hi, small favor: classify Cn1cc2c(c1C(=O)Nc1ccc(F)c(Cl)c1)CCC2NC(=O)OCc1n[nH]nc1C1CC1 (single isomer, unassigned) [Compound 147] by its EC50 when you get a moment.
## Result high group

---

Readings of pEC50 for the listed compounds
System: HBV rcDNA
experiment-summary: HepDE19 assay with bDNA quantitation of HBV rcDNA
Format: cell-based, hepatitis B virus
assay-context: HepDE19 cells, Tet-free medium, 7 day-incubation, rcDNA measured by Quantigene 2.0 bDNA assay, top concentration 25 μM; read-out: DE-19 bDNA EC50
// returns pEC50 (minus log10 of molar concentration), number only

Some compounds with known pEC50 results, for comparison:
compound	test-readout	result
Cn1c(C(=O)Nc2ccc(F)c(Cl)c2)c2c(c1C1CC1)C(NC(=O)OCc1nc[nH]n1)CC2 (single isomer, unassigned) [Compound 98]	pEC50	4.82
Cn1cc2c(c1C(=O)Nc1ccc(F)c(Cl)c1)CCC2NC(=O)OCc1c[nH]nn1 (single isomer, unassigned) [Compound 59]	pEC50	5.38
Cn1cnc(COC(=O)NC2CCc3c2cn(C)c3C(=O)Nc2ccc(F)c(Cl)c2)n1 (single isomer, unassigned) [Compound 25]	pEC50	5.46
Cn1cnc(COC(=O)NC2CCc3c2c(C(F)(F)F)n(C)c3C(=O)Nc2ccc(F)c(Cl)c2)n1 (stereo not drawn) [Compound 122]	pEC50	6.35

pEC50 recorded for this compound, Cn1c(Cl)c2c(c1C(=O)Nc1ccc(F)c(Cl)c1)CCCC2NC(=O)OCc1cn[nH]n1 (single isomer, unassigned) [Compound 137] , is 6.80

---

Readings of pEC50 for the listed molecules
Tested on: HBV rcDNA
experiment-summary: HepDE19 assay with bDNA quantitation of HBV rcDNA
Assay type: cell-based, hepatitis B virus
assay-context: Hepatitis B virus, HepDE19, 168 h, HepDE19 cells, Tet-free medium, 7 day-incubation, rcDNA measured by Quantigene 2.0 bDNA assay, top concentration 25 μM; read-out: DE-19 bDNA EC50
// returns pEC50 (minus log10 of molar concentration), number only

Some molecules with known pEC50 results, for comparison:
molecule	target-or-test-system	pEC50
Cn1cc2c(c1C(=O)Nc1ccc(F)c(Cl)c1)CCCCC2N (stereo not shown) [Compound 80]	HBV rcDNA	5.73
Cn1cnc(COC(=O)NC2CCc3c2cn(C)c3C(=O)Nc2cccc(F)c2)n1 (single isomer, unassigned) [Compound 66]	HBV rcDNA	6.05
Cn1cnc(COC(=O)NC2CCc3c2cn(C)c3C(=O)Nc2ccnc(Cl)c2)n1 (single isomer, unassigned) [Compound 68]	HBV rcDNA	6.18
CCn1cc2c(c1C(=O)Nc1ccc(F)c(Cl)c1)CCC2NC(=O)C1CC1 (stereo not shown) [Compound 18]	HBV rcDNA	6.46
Cn1c(Cl)c2c(c1C(=O)Nc1ccc(F)c(Cl)c1)CCC2NC(=O)OCc1nc[nH]n1 (stereo not shown) [Compound 103]	HBV rcDNA	7.70
CCn1cc2c(c1C(=O)Nc1ccc(F)c(Cl)c1)CCC2NC(=O)C1CC1 (single isomer, unassigned) [Compound 17]	HBV rcDNA	5.31

pEC50 recorded for this molecule, Cn1cnc(CNC(=O)NC2CCCc3c2cn(C)c3C(=O)Nc2ccc(F)c(Cl)c2)n1 (single isomer, unassigned) [Compound 84] , is 6.47
